Data provenance is ChEMBL document CHEMBL5104192.

Biological target: Melanocortin receptor 4 (Homo sapiens)
Sequence (P32245 whole entry): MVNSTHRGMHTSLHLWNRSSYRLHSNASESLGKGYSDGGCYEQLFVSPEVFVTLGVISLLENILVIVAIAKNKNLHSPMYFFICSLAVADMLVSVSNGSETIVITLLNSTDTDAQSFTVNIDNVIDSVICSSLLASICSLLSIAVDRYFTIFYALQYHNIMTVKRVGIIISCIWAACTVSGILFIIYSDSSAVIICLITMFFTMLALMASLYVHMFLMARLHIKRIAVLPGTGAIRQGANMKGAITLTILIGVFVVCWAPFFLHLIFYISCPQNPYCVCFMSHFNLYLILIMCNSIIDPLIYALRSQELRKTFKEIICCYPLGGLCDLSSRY
Test: Agonist activity at human MC4R expressed in HEK2936E cells assessed as cAMP production in presence of IBMX by time resolved fluorescence assay
*1 amine or outer side, *2 acyl side, *3 side chain or, on linkers, in order; H or OH if unused. Where a SMILES comes first, the peptide text is derived from it. Bridges are numbered along the chain shown (N, C = ends). [ ]: non-standard residue; d: D form. NMeR = CN[C@@H](CCCNC(=N)N)C(=O)O; X1 = n1nc([*:2])nnc1[*:1]; Nle = CCCC[C@H](N)C(=O)O
Form field: EC50 (one value per entry).
outcomeMeasure: EC50

INSERT INTO results (molecule, outcomemeasure, result) VALUES
  ('CCCC[C@@H]1NC(=O)[C@@H]2CSSC[C@H](NC(=O)[C@H](CCCNC(=N)N)NC(=O)[C@H](CC(=O)O)NC(=O)[C@H](Cc3c[nH]c4ccccc34)NC(=O)[C@H](CCCNC(=N)N)NC(=O)[C@H](Cc3ccccc3)NC(=O)[C@H](Cc3cnc[nH]3)NC(=O)CNC1=O)C(=O)N[C@@H](Cc1cnc[nH]1)C(=O)N[C@@H](Cc1ccccc1)C(=O)N[C@@H](CCCNC(=N)N)C(=O)N[C@@H](Cc1c[nH]c3ccccc13)C(=O)N[C@@H](CCCNC(=N)N)C(=O)N2 (cyclo(CHFRWRC[Nle]GHFRWDR); disulfide 1-7)', 'EC50', '8.13 nM'),
  ('CCCC[C@@H]1NC(=O)[C@@H]2CSc3nnc(nn3)SC[C@H](NC(=O)[C@H](CCCNC(=N)N)NC(=O)[C@H](CC(=O)O)NC(=O)[C@H](Cc3c[nH]c4ccccc34)NC(=O)[C@H](CCCNC(=N)N)NC(=O)[C@H](Cc3ccccc3)NC(=O)[C@H](Cc3cnc[nH]3)NC(=O)CNC1=O)C(=O)N[C@@H](Cc1cnc[nH]1)C(=O)N[C@@H](Cc1ccccc1)C(=O)N[C@@H](CCCNC(=N)N)C(=O)N[C@@H](Cc1c[nH]c3ccccc13)C(=O)N[C@@H](CCCNC(=N)N)C(=O)N2 (cyclo(CHFRWRC[Nle]GHFRWDR); linker 1-7 via X1)', 'EC50', '1.78 nM'),
  ('CC[C@H](C)[C@@H]1NC(=O)[C@@H]2CCCN2C(=O)[C@H](Cc2c[nH]c3ccccc23)NC(=O)[C@H](CCCNC(=N)N)N(C)C(=O)[C@H](Cc2ccccc2)NC(=O)[C@H](Cc2cnc[nH]2)NC(=O)[C@H]([C@@H](C)O)NC(=O)[C@@H](NC(C)=O)CSSC[C@@H](C(N)=O)NC1=O (Ac-CTHF[NMeR]WPIC-NH2; disulfide 1-9)', 'EC50', '60.3 nM'),
  ('CCCC[C@@H]1NC(=O)[C@@H]2CSC/C(=N/OCC(=O)NCCOCCOCCOCCN=[N+]=[N-])CSC[C@H](NC(=O)[C@H](CCCNC(=N)N)NC(=O)[C@H](CC(=O)O)NC(=O)[C@H](Cc3c[nH]c4ccccc34)NC(=O)[C@H](CCCNC(=N)N)NC(=O)[C@H](Cc3ccccc3)NC(=O)[C@H](Cc3cnc[nH]3)NC(=O)CNC1=O)C(=O)N[C@@H](Cc1cnc[nH]1)C(=O)N[C@@H](Cc1ccccc1)C(=O)N[C@@H](CCCNC(=N)N)C(=O)N[C@@H](Cc1c[nH]c3ccccc13)C(=O)N[C@@H](CCCNC(=N)N)C(=O)N2', 'EC50', '3.02 nM');
